The measurements presented in this section are drawn from patent US11523986B2.

Assay: in vitro
Conditions: human, pH 7.4, Papp (10^−6 cm/s) R1, apical dosing, DPBS pH 7.4, 120 min, 37° C.; diphenhydramine 100 μM, atenolol 100 μM, caffeine 50 μM co-dosed; replicate R1
resultType: Papp A→B at 120 min (×10⁻⁶ cm/s)
Quick reminder: number only, in ×10⁻⁶ cm/s, skip the unit.

Problem: Name the recorded Papp A→B at 120 min of the compound listed here: Cn1c(=O)c2c(ncn2C)n(C)c1=O [Caffeine, caffeine]
Solution: 30.9

* * *

Test: in vitro
Conditions: human, pH 7.4, Papp (10^−6 cm/s) Average ± SD, apical dosing, DPBS pH 7.4, 120 min, 37° C.; diphenhydramine 100 μM, atenolol 100 μM, caffeine 50 μM co-dosed; average
resultType: Papp A→B at 120 min (×10⁻⁶ cm/s)
Quick reminder: number only, in ×10⁻⁶ cm/s, skip the unit.

Problem: Name the recorded Papp A→B at 120 min of the compound listed here: Cn1c(=O)c2c(ncn2C)n(C)c1=O [Caffeine, caffeine]
Solution: 29.1
